Assign logkw (IAM retention factor) to each entry below.
- measurement description: IAM chromatography (IAM.PC.DD.2 column) and estimated human oral absorption
- Assay type: in vitro ADME
- conditions used: pH 7.40, IAM.PC.DD.2, intercept at pure aqueous phase

Lab book: logkw (IAM retention factor) of `CC(=O)Oc1ccc(-c2c(C)c3ccccc3oc2=O)cc1` noted as 2.48

Lab book: logkw (IAM retention factor) of `CC(=O)Oc1ccc(-c2c(C)c3cc(Cl)ccc3oc2=O)cc1OC(C)=O` noted as 3.04

Lab book: logkw (IAM retention factor) of `Cc1c(-c2ccc(O)cc2)c(=O)oc2ccccc12` noted as 3.34

Lab book: logkw (IAM retention factor) of `CC(=O)Oc1ccc(-c2c(C)c3cc(Cl)ccc3oc2=O)cc1` noted as 3.06

Lab book: logkw (IAM retention factor) of `Cc1c(-c2cccc(F)c2)c(=O)oc2cccc(O)c12` noted as 3.23

Lab book: logkw (IAM retention factor) of `Cc1c(-c2ccc(O)cc2)c(=O)oc2ccc(Br)cc12` noted as 3.23

Lab book: logkw (IAM retention factor) of `CC(=O)Oc1cccc2oc(=O)c(-c3ccccc3F)c(C)c12` noted as 2.56

Lab book: logkw (IAM retention factor) of `Cc1c(-c2ccc(F)cc2)c(=O)oc2cccc(O)c12` noted as 2.62

Lab book: logkw (IAM retention factor) of `Cc1c(-c2ccccc2Cl)c(=O)oc2cccc(O)c12` noted as 4.09

Lab book: logkw (IAM retention factor) of `CC(=O)Oc1cccc2oc(=O)c(-c3ccc(F)cc3)c(C)c12` noted as 2.52

Lab book: logkw (IAM retention factor) of `CC(=O)Oc1ccc(-c2c(C)c3cc(Br)ccc3oc2=O)cc1` noted as 3.28

Lab book: logkw (IAM retention factor) of `Cc1c(-c2ccccc2F)c(=O)oc2cccc(O)c12` noted as 4.69

Lab book: logkw (IAM retention factor) of `Cc1c(-c2ccc(O)cc2)c(=O)oc2ccc(Cl)cc12` noted as 3.41

Lab book: logkw (IAM retention factor) of `CC(=O)Oc1ccc(-c2c(C)c3cc(Br)ccc3oc2=O)cc1OC(C)=O` noted as 3.21

Lab book: logkw (IAM retention factor) of `CC(=O)Oc1cccc2oc(=O)c(-c3cccc(F)c3)c(C)c12` noted as 2.47

Lab book: logkw (IAM retention factor) of `CC(=O)Oc1cccc2oc(=O)c(-c3cccc(Br)c3)c(C)c12` noted as 4.77

Lab book: logkw (IAM retention factor) of `CC(=O)Oc1cccc2oc(=O)c(-c3cccc(Cl)c3)c(C)c12` noted as 2.88

Lab book: logkw (IAM retention factor) of `CC(=O)Oc1ccc(-c2c(C)c3cc(Br)cc(Br)c3oc2=O)cc1` noted as 3.91

Lab book: logkw (IAM retention factor) of `Cc1c(-c2cccc(Cl)c2)c(=O)oc2cccc(O)c12` noted as 3.73

Lab book: logkw (IAM retention factor) of `CC(=O)Oc1ccc(-c2c(C)c3cc(Br)cc(Br)c3oc2=O)cc1OC(C)=O` noted as 3.79

Lab book: logkw (IAM retention factor) of `Cc1c(-c2ccc(Cl)cc2)c(=O)oc2cccc(O)c12` noted as 4.53

Lab book: logkw (IAM retention factor) of `CC(=O)Oc1cccc2oc(=O)c(-c3ccccc3Cl)c(C)c12` noted as 3.58

Lab book: logkw (IAM retention factor) of `CC(=O)Oc1cccc2oc(=O)c(-c3ccc(Cl)cc3)c(C)c12` noted as 3.05

Lab book: logkw (IAM retention factor) of `CC(=O)Oc1ccc(-c2c(C)c3ccccc3oc2=O)cc1OC(C)=O` noted as 2.43

Provenance of the data: paper PMC8512853
